Data origin: patent US20180346600A1

system name: the molecule itself
measurement protocol: HEK293-F co-expression, Protein A purification, non-reducing SDS-PAGE densitometry
Classify as follows. Reported (Fc)2 (homodimer) (%) greater than or equal to 6%: 1. Reported (Fc)2 (homodimer) (%) below: 0.

{"protein": "FcCH3B, EW-RVT (Q347R/D399V/F405T) (other, also called EW-RVT CH3B chain) TCPPCPAPELLGGPSVFLFPPKPKDTLMISRTPEVTCVVVDVSHEDPEVKFNWYVDGVEVHNAKTKPREEQYNSTYRVVSVLTVLHQDWLNGKEYKCKVSNKALPAPIEKTISKAKGQPREPRVYTLPPSRDELTKNQVSLTCLVKGFYPSDIAVEWESNGQPENNYKTTPPVLVSDGSFTLYSKLTVDKSRWQQGNVFSCSVMHEALHNHYTQKSLSLSPGK", "class name": 0}
{"protein": "FcCH3B, A109 (E357M/S364W/D399V/F405T) (other, also called A109 CH3B chain) TCPPCPAPELLGGPSVFLFPPKPKDTLMISRTPEVTCVVVDVSHEDPEVKFNWYVDGVEVHNAKTKPREEQYNSTYRVVSVLTVLHQDWLNGKEYKCKVSNKALPAPIEKTISKAKGQPREPQVYTLPPSRDMLTKNQVWLTCLVKGFYPSDIAVEWESNGQPENNYKTTPPVLVSDGSFTLYSKLTVDKSRWQQGNVFSCSVMHEALHNHYTQKSLSLSPGK", "class name": 0}
{"protein": "FcCH3B, B168 (K392G/K409M/D399V/F405T) (other, also called B168 CH3B chain) TCPPCPAPELLGGPSVFLFPPKPKDTLMISRTPEVTCVVVDVSHEDPEVKFNWYVDGVEVHNAKTKPREEQYNSTYRVVSVLTVLHQDWLNGKEYKCKVSNKALPAPIEKTISKAKGQPREPQVYTLPPSRDELTKNQVSLTCLVKGFYPSDIAVEWESNGQPENNYGTTPPVLVSDGSFTLYSMLTVDKSRWQQGNVFSCSVMHEALHNHYTQKSLSLSPGK", "class name": 1}
{"protein": "FcCH3B, A146 (E357M/D399V/F405T) (other, also called A146 CH3B chain) TCPPCPAPELLGGPSVFLFPPKPKDTLMISRTPEVTCVVVDVSHEDPEVKFNWYVDGVEVHNAKTKPREEQYNSTYRVVSVLTVLHQDWLNGKEYKCKVSNKALPAPIEKTISKAKGQPREPQVYTLPPSRDMLTKNQVSLTCLVKGFYPSDIAVEWESNGQPENNYKTTPPVLVSDGSFTLYSKLTVDKSRWQQGNVFSCSVMHEALHNHYTQKSLSLSPGK", "class name": 1}
{"protein": "FcCH3B, A108 (E357I/S364T/D399V/F405T) (other, also called A108 CH3B chain) TCPPCPAPELLGGPSVFLFPPKPKDTLMISRTPEVTCVVVDVSHEDPEVKFNWYVDGVEVHNAKTKPREEQYNSTYRVVSVLTVLHQDWLNGKEYKCKVSNKALPAPIEKTISKAKGQPREPQVYTLPPSRDILTKNQVTLTCLVKGFYPSDIAVEWESNGQPENNYKTTPPVLVSDGSFTLYSKLTVDKSRWQQGNVFSCSVMHEALHNHYTQKSLSLSPGK", "class name": 1}
